Assay: RMC-4630-01 phase 1 study: pharmacokinetics in patients
Type: in vivo, human
Conditions: human, plasma, oral, 200 mg, 200 mg twice weekly (D1, D2), Cycle/Day 1/15; read-out: AUC0-24 [Mean(CV %)]
propertyName: AUC(0-t) (µM·h)
Form entry: value (µM·h) — number only.

Input: // lookup AUC(0-t) for Cc1nc(N2CCC3(CC2)CO[C@@H](C)[C@H]3N)c(CO)nc1Sc1ccnc(N)c1Cl [RMC-4630]
Output: 14.5

###

Assay: RMC-4630-01 phase 1 study: pharmacokinetics in patients
Type: in vivo, human
Conditions: human, plasma, oral, 140 mg, following a single dose at 140 mg; read-out: median half-life (converted)
propertyName: half-life

Input: // lookup half-life for Cc1nc(N2CCC3(CC2)CO[C@@H](C)[C@H]3N)c(CO)nc1Sc1ccnc(N)c1Cl
Output: ~28 h

###

Test: RMC-4630-01 phase 1 study: pharmacokinetics in patients
Format: in vivo, human
Conditions: human, plasma, oral, 140 mg, 140 mg twice weekly (D1, D4), Cycle/Day 1/1; read-out: Cmax [Mean(CV %)]
propertyName: Cmax (nM)
Form entry: value (nM) — number only.

Input: // lookup Cmax for Cc1nc(N2CCC3(CC2)CO[C@@H](C)[C@H]3N)c(CO)nc1Sc1ccnc(N)c1Cl
Output: 915

###

Experiment: RMC-4630-01 phase 1 study: pharmacokinetics in patients
Format: in vivo, human
Conditions: human, plasma, oral, 200 mg, 200 mg twice weekly (D1, D4), Cycle/Day 1/15; read-out: Median Tmax (range)
propertyName: Tmax

Input: // lookup Tmax for Cc1nc(N2CCC3(CC2)CO[C@@H](C)[C@H]3N)c(CO)nc1Sc1ccnc(N)c1Cl [RMC-4630]
Output: 3 h

###

Experiment: RMC-4630-01 phase 1 study: pharmacokinetics in patients
Assay type: in vivo, human
Conditions: human, plasma, oral, 200 mg, 200 mg twice weekly (D1, D4), Cycle/Day 1/1; read-out: Median Tmax (range)
propertyName: Tmax (h)
Form entry: value (h) — number only.

Input: // lookup Tmax for Cc1nc(N2CCC3(CC2)CO[C@@H](C)[C@H]3N)c(CO)nc1Sc1ccnc(N)c1Cl
Output: 2

###

Assay: RMC-4630-01 phase 1 study: pharmacokinetics in patients
Assay type: in vivo, human
Conditions: human, plasma, oral, 140 mg, 140 mg twice weekly (D1, D4), Cycle/Day 1/1; read-out: Median Tmax (range)
propertyName: Tmax (h)
Form entry: value (h) — number only.

Input: // lookup Tmax for Cc1nc(N2CCC3(CC2)CO[C@@H](C)[C@H]3N)c(CO)nc1Sc1ccnc(N)c1Cl [RMC-4630]
Output: 2

###

Test: RMC-4630-01 phase 1 study: pharmacokinetics in patients
Format: in vivo, human
Settings: human, plasma, oral, 140 mg, 140 mg twice weekly (D1, D4), Cycle/Day 1/15; read-out: Median Tmax (range)
propertyName: Tmax (h)
Form entry: value (h) — number only.

Input: // lookup Tmax for Cc1nc(N2CCC3(CC2)CO[C@@H](C)[C@H]3N)c(CO)nc1Sc1ccnc(N)c1Cl [RMC-4630]
Output: 2

###

Assay: RMC-4630-01 phase 1 study: pharmacokinetics in patients
Type: in vivo, human
Conditions: human, plasma, oral, 200 mg, 200 mg twice weekly (D1, D2), Cycle/Day 1/1; time post D2 dosing; read-out: Median Tmax (range)
propertyName: Tmax

Input: // lookup Tmax for Cc1nc(N2CCC3(CC2)CO[C@@H](C)[C@H]3N)c(CO)nc1Sc1ccnc(N)c1Cl [RMC-4630]
Output: 3 h

###

Assay: RMC-4630-01 phase 1 study: pharmacokinetics in patients
Type: in vivo, human
Conditions: human, plasma, oral, 200 mg, 200 mg twice weekly (D1, D4), Cycle/Day 1/1; read-out: AUC0-24 [Mean(CV %)]
propertyName: AUC(0-t) (µM·h)
Form entry: value (µM·h) — number only.

Input: // lookup AUC(0-t) for Cc1nc(N2CCC3(CC2)CO[C@@H](C)[C@H]3N)c(CO)nc1Sc1ccnc(N)c1Cl
Output: 17.5

###

Assay: RMC-4630-01 phase 1 study: pharmacokinetics in patients
Type: in vivo, human
Conditions: human, plasma, po, patients, D1, D4 intermittent schedule, oral; read-out: half-life (estimated) (converted)
propertyName: half-life (h)
Form entry: value (h) — number only.

Input: // lookup half-life for Cc1nc(N2CCC3(CC2)CO[C@@H](C)[C@H]3N)c(CO)nc1Sc1ccnc(N)c1Cl
Output: 25

###

Experiment: RMC-4630-01 phase 1 study: pharmacokinetics in patients
Type: in vivo, human
Details: human, plasma, oral, 200 mg, 200 mg twice weekly (D1, D2), Cycle/Day 1/15; time post D16 dosing; read-out: Median Tmax (range)
propertyName: Tmax (h)
Form entry: value (h) — number only.

Input: // lookup Tmax for Cc1nc(N2CCC3(CC2)CO[C@@H](C)[C@H]3N)c(CO)nc1Sc1ccnc(N)c1Cl
Output: 2

###

Test: RMC-4630-01 phase 1 study: pharmacokinetics in patients
Type: in vivo, human
Settings: human, plasma, oral, 200 mg, 200 mg twice weekly (D1, D4), Cycle/Day 1/1; read-out: Median t1/2 (range) (converted)
propertyName: half-life (h)
Form entry: value (h) — number only.

Input: // lookup half-life for Cc1nc(N2CCC3(CC2)CO[C@@H](C)[C@H]3N)c(CO)nc1Sc1ccnc(N)c1Cl
Output: 33

###

Test: RMC-4630-01 phase 1 study: pharmacokinetics in patients
Format: in vivo, human
Settings: human, plasma, oral, 200 mg, 200 mg twice weekly (D1, D4), Cycle/Day 1/15; read-out: AUC0-24 [Mean(CV %)]
propertyName: AUC(0-t)
Please answer using a numeric value trailed by its unit.

Input: // lookup AUC(0-t) for Cc1nc(N2CCC3(CC2)CO[C@@H](C)[C@H]3N)c(CO)nc1Sc1ccnc(N)c1Cl
Output: 18.6 µM·h

###

Assay: RMC-4630-01 phase 1 study: pharmacokinetics in patients
Format: in vivo, human
Settings: human, plasma, oral, 140 mg, 140 mg twice weekly (D1, D4), Cycle/Day 1/1; read-out: Median t1/2 (range) (converted)
propertyName: half-life (h)
Form entry: value (h) — number only.

Input: // lookup half-life for Cc1nc(N2CCC3(CC2)CO[C@@H](C)[C@H]3N)c(CO)nc1Sc1ccnc(N)c1Cl
Output: 28

###

Experiment: RMC-4630-01 phase 1 study: pharmacokinetics in patients
Type: in vivo, human
Conditions: human, plasma, oral, 200 mg, 200 mg twice weekly (D1, D2), Cycle/Day 1/1; read-out: Cmax [Mean(CV %)]
propertyName: Cmax (nM)
Form entry: value (nM) — number only.

Input: // lookup Cmax for Cc1nc(N2CCC3(CC2)CO[C@@H](C)[C@H]3N)c(CO)nc1Sc1ccnc(N)c1Cl
Output: 1580

###

Experiment: RMC-4630-01 phase 1 study: pharmacokinetics in patients
Assay type: in vivo, human
Conditions: human, plasma, oral, 200 mg, 200 mg twice weekly (D1, D4), Cycle/Day 1/15; read-out: Cmax [Mean(CV %)]
propertyName: Cmax (nM)
Form entry: value (nM) — number only.

Input: // lookup Cmax for Cc1nc(N2CCC3(CC2)CO[C@@H](C)[C@H]3N)c(CO)nc1Sc1ccnc(N)c1Cl [RMC-4630]
Output: 1230

###

Assay: RMC-4630-01 phase 1 study: pharmacokinetics in patients
Format: in vivo, human
Conditions: human, plasma, oral, 140 mg, 140 mg twice weekly (D1, D4), Cycle/Day 1/1; read-out: AUC0-72 [Mean(CV %)]
propertyName: AUC(0-t) (µM·h)
Form entry: value (µM·h) — number only.

Input: // lookup AUC(0-t) for Cc1nc(N2CCC3(CC2)CO[C@@H](C)[C@H]3N)c(CO)nc1Sc1ccnc(N)c1Cl [RMC-4630]
Output: 19.7

###

Assay: Mouse efficacy pharmacokinetics (QD, steady state)
Type: in vivo
Settings: plasma; Mouse efficacy, QD steady state, 10 mg/kg; read-out: AUC0-24
propertyName: AUC(0-t) (µM·h)
Form entry: value (µM·h) — number only.

Input: // lookup AUC(0-t) for Cc1nc(N2CCC3(CC2)CO[C@@H](C)[C@H]3N)c(CO)nc1Sc1ccnc(N)c1Cl [RMC-4630]
Output: 6.44

###

Assay: RMC-4630-01 phase 1 study: pharmacokinetics in patients
Format: in vivo, human
Conditions: human, plasma, oral, 200 mg, 200 mg twice weekly (D1, D2), Cycle/Day 1/15; read-out: Cmax [Mean(CV %)]
propertyName: Cmax (nM)
Form entry: value (nM) — number only.

Input: // lookup Cmax for Cc1nc(N2CCC3(CC2)CO[C@@H](C)[C@H]3N)c(CO)nc1Sc1ccnc(N)c1Cl [RMC-4630]
Output: 1630

###

Test: RMC-4630-01 phase 1 study: pharmacokinetics in patients
Type: in vivo, human
Conditions: human, plasma, oral, 200 mg, 200 mg twice weekly (D1, D2), Cycle/Day 1/1; read-out: AUC0-24 [Mean(CV %)]
propertyName: AUC(0-t) (µM·h)
Form entry: value (µM·h) — number only.

Input: // lookup AUC(0-t) for Cc1nc(N2CCC3(CC2)CO[C@@H](C)[C@H]3N)c(CO)nc1Sc1ccnc(N)c1Cl
Output: 13.9
